Below is a list of entries, each paired with its recorded IC50 at 24 h value.
method: MTT cell viability assay
Assay type: cell-based
details: human

structure as smiles	IC50 at 24 h
O=C(O)COc1cc(O)c2c(=O)cc(-c3ccccc3)oc2c1	> 100 µM
COc1cccc2oc(C(=O)c3ccccc3)cc12	> 100 µM
Cc1ccc2[nH]c(=O)c(C(=O)/C=C/c3nc4ccccc4[nH]3)c(-c3ccccc3)c2c1	6 µM
O=C(Nc1cccc(S(=O)(=O)NC2=NCCCCC2)c1)c1cc(-c2ccncc2)nc2ccccc12	> 100 µM
Cc1ccc(-c2cc(-c3ccncc3)nc3ccccc23)cc1	> 100 µM
O=C(/C=C/c1ccccc1O)c1c(O)c2ccccc2oc1=O	77 µM
O=[N+]([O-])c1cccc2nc(/C=C/c3cc4ccccc4nc3N3CCOCC3)ccc12	> 100 µM

* * *

tested on: E. coli-expressed ΔK280 TauRD protein (Homo sapiens, UniProt P10636, DEL597-597)
Construct: TauRD (Q^244-E^372 of Tau, NP_005901) aggregation; N-terminal Met (N)
Sequence (P10636 with tags, fused parts or gaps isoform P10636-8 DEL280-280): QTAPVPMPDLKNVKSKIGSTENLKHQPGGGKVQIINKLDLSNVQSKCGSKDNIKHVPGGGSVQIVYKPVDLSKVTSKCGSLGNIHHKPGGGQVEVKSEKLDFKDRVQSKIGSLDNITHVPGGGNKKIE
method: Thioflavin T fluorescence ΔK280 TauRD aggregation assay
details: TauRD protein 20 μM, 48 h at 37 °C; read-out: EC50 inhibiting ΔK280 TauRD aggregation

compound	EC50
Nc1c(/N=N/c2ccc(-c3ccc(/N=N/c4cc(S(=O)(=O)O)c5ccccc5c4N)cc3)cc2)cc(S(=O)(=O)O)c2ccccc12 [congo red, Congo red, reference compound]	13.9 µM
Cc1ccc(-c2cc(-c3ccncc3)nc3ccccc23)cc1	20.3 µM
O=C(/C=C/c1ccccc1O)c1c(O)c2ccccc2oc1=O	13.2 µM
O=[N+]([O-])c1cccc2nc(/C=C/c3cc4ccccc4nc3N3CCOCC3)ccc12	13.1 µM

* * *

Below is a list of entries, each paired with its recorded IC50 at 6 days value.
method: Cell number / cell survival in induced ΔK280 TauRD-DsRed SH-SY5Y cells (high-content)
Format: cell-based, human
details: human; induced SH-SY5Y cells expressing ΔK280 TauRD-DsRed for 6 days, 2–10 μM tested; read-out: IC50 cytotoxicity based on cell number

molecule	IC50 at 6 days
O=C(Nc1cccc(S(=O)(=O)NC2=NCCCCC2)c1)c1cc(-c2ccncc2)nc2ccccc12	> 10 µM
COc1cccc2oc(C(=O)c3ccccc3)cc12	27 µM
Nc1c(/N=N/c2ccc(-c3ccc(/N=N/c4cc(S(=O)(=O)O)c5ccccc5c4N)cc3)cc2)cc(S(=O)(=O)O)c2ccccc12 [congo red, Congo red, reference compound]	> 10 µM
Cc1ccc2[nH]c(=O)c(C(=O)/C=C/c3nc4ccccc4[nH]3)c(-c3ccccc3)c2c1	< 2 µM
CCOC(=O)c1cc2c(O)cccc2oc1=O	> 10 µM
Cc1ccc(-c2cc(-c3ccncc3)nc3ccccc23)cc1	> 10 µM
O=C(O)COc1cc(O)c2c(=O)cc(-c3ccccc3)oc2c1	> 10 µM
O=[N+]([O-])c1cccc2nc(/C=C/c3cc4ccccc4nc3N3CCOCC3)ccc12	23 µM
O=C(/C=C/c1ccccc1O)c1c(O)c2ccccc2oc1=O	16 µM
